B1: SLC35F2 (parent)
chain: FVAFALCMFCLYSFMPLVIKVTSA

- Variants of: B1
- assayInfo: protein stability index of a GFP-peptide fusion (GPS, HEK-293T) (PSI 1-6); higher = more stable;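 note: lentivirally expressed fusions sorted by FACS into six bins by GFP to DsRed ratio, PSI derived from sequencing read proportions per bin multiplied by bin number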
- conditions: c terminus: a fixed tail appended
# label = yes if protein stability index >= 3 else no

> print(dat)
                  primarysequence  classassignment
1  FPAFALCMFCLYSFMPLVIKVTSA [V2P]              yes

stdin: Can FVAFALCMFCLYSFMPLVIEVTSA [K20E] be said to have protein stability index at or above 3?
stdout: no

stdin: State whether the measured protein stability index reaches 3, counting equality as reaching it, for FVAFALCGFCLYSFMPLVIKVTSA [M8G]
stdout: no

stdin: Does FVAFALCMFCLYSFMPLVVKVTSA [I19V] have a reported protein stability index of at least 3?
stdout: yes

stdin: Threshold query (protein stability index >= 3) on FVAFALCMFCLYLFMPLVIKVTSA [S13L]
stdout: yes

stdin: Dear colleague, could you confirm whether FVAFALCMFCLVSFMPLVIKVTSA [Y12V] has protein stability index at or above 3?
stdout: no

stdin: Check the entry FVAFALCMFCLYSFMPLVIKVSSA [T22S] : does protein stability index equal or exceed 3?
stdout: no

stdin: Does the variant FVAFALCMFCLYSFMPLVIKVTTA [S23T] have recorded protein stability index that is 3 or more?
stdout: no

stdin: Check the entry FWAFALCMFCLYSFMPLVIKVTSA [V2W] : does protein stability index equal or exceed 3?
stdout: no

stdin: Does FVAFALCMFCLYSFMPLVIKPTSA [V21P] have a reported protein stability index of at least 3?
stdout: no

stdin: Tell me whether protein stability index is at least 3 here: FVACALCMFCLYSFMPLVIKVTSA [F4C]
stdout: no

stdin: Decide: is the reported value of protein stability index for FVAFALWMFCLYSFMPLVIKVTSA [C7W] equal to or greater than 3?
stdout: no

stdin: Test whether the variant FVAFALCMFCLYCFMPLVIKVTSA [S13C] records protein stability index of 3 or higher.
stdout: no

stdin: State whether the measured protein stability index reaches 3, counting equality as reaching it, for FVAFALCMFLLYSFMPLVIKVTSA [C10L]
stdout: no

stdin: In plain terms: is recorded protein stability index at least 3 for IVAFALCMFCLYSFMPLVIKVTSA [F1I] ?
stdout: yes

stdin: Given the entry FVAFALCMFCLYSFMPLVIKVTSS [A24S] , answer whether its protein stability index meets or surpasses 3.
stdout: no

stdin: Does the reported protein stability index for FVAFALCMFCLYSFMGLVIKVTSA [P16G] fall at or above the 3 mark?
stdout: no

stdin: State whether the measured protein stability index reaches 3, counting equality as reaching it, for FVAFALCMFCLYSFMPKVIKVTSA [L17K]
stdout: yes

stdin: Tell me whether protein stability index is at least 3 here: FVAFADCMFCLYSFMPLVIKVTSA [L6D]
stdout: yes

stdin: Could you verify whether the entry FVAFELCMFCLYSFMPLVIKVTSA [A5E] shows protein stability index of no less than 3?
stdout: no

stdin: Hello, I need to know if FVAFALCMFCLYSFMPLWIKVTSA [V18W] has measured protein stability index not below 3. Thanks!
stdout: no

stdin: Is reported protein stability index greater than or equal to 3 here: FVAFALCPFCLYSFMPLVIKVTSA [M8P]
stdout: no

stdin: Does FVAFALCMFCLYSFMPLVIKLTSA [V21L] have a reported protein stability index of at least 3?
stdout: no

stdin: Hi, just wondering whether FVAFALCMFCLYSFVPLVIKVTSA [M15V] shows protein stability index of 3 or higher.
stdout: no

Where these numbers come from: the supplement of paper PMC10567573
